Source of measurements: patent US20160200831A1

Each entry below carries its reported Chromogenic Assay IC50.
- test-system: human PAI-1 (human, UniProt P05121 24-402)
- Sequence (P05121 24-402 limits assumed): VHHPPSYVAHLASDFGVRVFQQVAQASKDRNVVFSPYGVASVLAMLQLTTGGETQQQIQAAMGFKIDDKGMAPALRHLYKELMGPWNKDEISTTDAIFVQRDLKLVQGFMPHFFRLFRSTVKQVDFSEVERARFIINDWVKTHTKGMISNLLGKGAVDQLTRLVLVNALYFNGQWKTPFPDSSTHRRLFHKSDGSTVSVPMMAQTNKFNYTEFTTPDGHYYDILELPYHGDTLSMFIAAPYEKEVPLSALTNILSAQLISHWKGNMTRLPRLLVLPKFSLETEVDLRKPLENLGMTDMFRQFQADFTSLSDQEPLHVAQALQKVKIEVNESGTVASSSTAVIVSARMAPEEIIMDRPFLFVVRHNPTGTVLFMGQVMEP
- protocol: cell-based or functional assay
Give the number; nM is assumed, so skip it.

A44-hv9 (antibody, V domains shown, humanized A44, HEK293; constant regions as for A44-hv1; also called LC5b x HC5b; variant 9) VH: QMQLQESGPGLVKPSETLSLTCTVSGDSMTNGYWNWIRQPPGKGLEYMGYITYSGSTYYNPSLKSRITISRDTSKNQYSLKLSSVTAADTAVYYCARWHYGSPYYFDYWGQGTLVTVSS VL: DIQMTQSPSSLSASVGDRVTITCKASQDINSYLSWLQQKPGKAPKTLIYRANRSVDGVPSRFSGSGSGQDYTFTISSLQPEDIATYYCLQYDEFPPTFGGGTKVEIK; 0.86

// next item, Chromogenic Assay IC50 requested
Prompt: # return recorded Chromogenic Assay IC50 for input A44-hv1 (antibody, V domains shown, humanized A44, HEK293; also called LC1a x HC1a; variant 1) VH: EMTLKESGPTLVKPTQTLSLTCSVTGDSMTNGYWNWIRKFPGKALEYMGYITYSGSTYYNPSLKGRISITRNTSKNQYYLTLSSVTTVDTATYYCARWHYGSPYYFDYWGQGTTLTVSS VL: DIKMTQSPSSLSASVGDRVTITCKASQDINSYLSWLQQKPGKSPKTLIYRANRSVDGVPSRFSGSGSGQDYSLTISSLQPEDLGIYYCLQYDEFPPTFGGGTKLEIK
Response: 0.49
